- experiment: qHTS assay to identify small molecule antagonists of the estrogen receptor alpha (ER-alpha) signaling pathway using the BG1 cell line in the presence of 0.1 nM 17-beta-estradiol - cell viability counter screen (AID 1259241); also: nearly all actives have a fitted effect of over 40% in size
- test_settings: VM7Luc4E2 (BG1) viability, CellTiter-Fluor protease, 22 h, 0.1 nM estradiol agonist added; series mostly up to 92.4 µM
Results filed as inconclusive are left out. The source made the active and inactive calls. Calls follow the shape of the dose curve; as a rule, active = well fitted cell-killing curve with a large enough effect in the repeat runs; inconclusive = weak or mixed curves, or effect the other way; inactive = flat fitted curve, though single readings scatter.
metric: outcome

- compound_structure: "CCC(=O)O[C@]1(C(=O)SCF)[C@H](C)C[C@H]2[C@@H]3C[C@H](F)C4=CC(=O)C=C[C@]4(C)[C@@]3(F)[C@@H](O)C[C@@]21C"
  metric: "outcome"
  reported: "inactive"
- compound_structure: "CCOC(=O)c1ccccc1O"
  metric: "outcome"
  reported: "inactive"
- compound_structure: "OCCN(CCO)c1ccccc1"
  metric: "outcome"
  reported: "inactive"
- compound_structure: "Cc1c(C(=O)NCCO)[n+](=O)c2ccccc2n1[O-]"
  metric: "outcome"
  reported: "inactive"
- compound_structure: "OCc1ccccc1O"
  metric: "outcome"
  reported: "inactive"
- compound_structure: "CO[Si](C)(C)OC"
  metric: "outcome"
  reported: "inactive"
